# System: MS2 coat protein
# TEST METHOD NOTES: apparent KD of MS2 coat protein; designed switch direction (-1 OFF switch, 1 ON switch): -1; higher = weaker reporter binding
# ASSAY CONTEXT: input ligand: none
MEASURED ATTRIBUTE: apparent KD of MS2 coat protein (nM)
Express it in nM; write the number only.

Query: Tell me the measured apparent KD of MS2 coat protein of GCACGGAGUGUAGGAUAUCUGUGCGAUUAGCUCAGAGAAGGACACAUGAGGAUCACCCAUGUGUAUCAACACAAUAAUCCGUGC [Eli exng1 - 071] (Eterna round: R96, puzzle: Exclusion NG 1) , please.
Response: 14.5

Query: Requested field: apparent KD of MS2 coat protein. Item: UGUUGUUCAGGAUAUGGUGUGUUUUACAUGAGGAUCACCCAUGUGGGUCCUGGUUUGGCGUCAGAAGGGAAUGUUG [salish99_ex5_r4_117] (Eterna round: R97, puzzle: Exclusion 5)
Response: 1040

Query: Param item = GGCGCACAUGAGGAUCACCCAUGUGAGGAUAUUAGGCGAUCGUCGAAAGACGAUAGCCUGAGAAGGCACAUGCC [Eli x1 4.19] (Eterna round: R97, puzzle: Exclusion 1) ; retrieve measured apparent KD of MS2 coat protein.
Response: 33.1

Query: Any idea what its apparent KD of MS2 coat protein is? The sequence is GUAAUAGUGGUUAGGAUAUGCGAUCGAAAAUAGGUGCAGAAGGAACAUGAGGAUCACCCAUGUGCCUCCUCAAU [Eternabot (L1) Solution 6] (Eterna round: R97, puzzle: Brourd's mod of Exclusion 4)
Response: 15.6

Query: # input sequence: UUCACAUGGACAUAAGAUCACAUGAGGAUCACCCAUGUGAAUAACAAGCUUUUUGUUCGUCUUAUGUCCAAUAAUAA [Stov1/14-B1] (Eterna round: R97, puzzle: Sensor, turn-off variant 1) ; wanted: its apparent KD of MS2 coat protein
Response: 12.6
